The entries below are paired with their reported tubulin polymerization end-point dOD.
system: tubulin (bovine brain); assay: tubulin polymerization end-point dOD, fold change relative to DMSO vehicle; higher = more polymerization (stabilization); settings: 50 µM; 60 min; 37 °C
Reported Endpoint: tubulin polymerization end-point dOD

{"Molecule": "Cc1ccc(-c2csc3ncn(CC4CCCCO4)c(=O)c23)cc1 (stereo unspecified)", "Reported Endpoint": "tubulin polymerization end-point dOD", "Measurement": "-190%"}
{"Molecule": "COc1ccc(Br)cc1-c1nc(CN2C(=O)NC(C)(c3ccccc3)C2=O)cs1 (stereo unspecified)", "Reported Endpoint": "tubulin polymerization end-point dOD", "Measurement": "88.8%"}
{"Molecule": "Cc1ccc(/C=N/NC(=O)c2ccc3c(c2)OCO3)cc1", "Reported Endpoint": "tubulin polymerization end-point dOD", "Measurement": "-38.5%"}
{"Molecule": "CC(=O)c1c(C)oc2c1cc(NS(=O)(=O)c1ccc(C)cc1)c1ccccc12", "Reported Endpoint": "tubulin polymerization end-point dOD", "Measurement": "-58.9%"}
{"Molecule": "O=C(Nc1ccccc1Cl)N(Cc1cccs1)Cc1cc2cc3c(cc2[nH]c1=O)OCCO3", "Reported Endpoint": "tubulin polymerization end-point dOD", "Measurement": "-17.8%"}
{"Molecule": "O=C(NC1=NCCS1)c1sc2cccc(F)c2c1COc1ccccc1", "Reported Endpoint": "tubulin polymerization end-point dOD", "Measurement": "34.2%"}
{"Molecule": "O=c1[nH]c(/C=C/c2ccccc2)nc2sc3c(c12)CCCCC3", "Reported Endpoint": "tubulin polymerization end-point dOD", "Measurement": "16.8%"}
{"Molecule": "CCc1cc2cc3c(cc2nc1SCC(=O)NCCc1ccccc1)OCO3", "Reported Endpoint": "tubulin polymerization end-point dOD", "Measurement": "387%"}
{"Molecule": "CCc1noc(CSc2ncnc3scc(-c4ccc(C)cc4)c23)n1", "Reported Endpoint": "tubulin polymerization end-point dOD", "Measurement": "30.2%"}
{"Molecule": "COc1ccccc1N1CC[NH+](Cc2c(-c3ccccc3)nc3sccn23)CC1", "Reported Endpoint": "tubulin polymerization end-point dOD", "Measurement": "-21.9%"}
{"Molecule": "O=C(Nc1ccc(CNc2ncnc3cc(Cl)ccc23)cc1)C1CC1", "Reported Endpoint": "tubulin polymerization end-point dOD", "Measurement": "8.64%"}
